B1: CPEB3 Ribozyme (parent)
chain: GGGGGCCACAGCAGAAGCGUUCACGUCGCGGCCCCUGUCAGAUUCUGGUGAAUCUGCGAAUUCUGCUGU

- Variants of: B1
- protocol.description: self-cleavage, relative activity (ratio to wild type); higher = more cleavage; co-transcriptional
measured.endpoint: self-cleavage
Reply with just the number.

GUGGGCCACAGCAGAAGCGUUCACGUCGCGGCCCCUGUCAGAUUCUGGUGAAUCUACGAAUUCUGCUGU | 0.0814
GGGGGCCACAGCAGAAGCGUUCACGUCGCGGCCCCUGUCAGAGUCUGGUGAAUCUGAGAAUUCUGCUGU | 0.293
GGGGGCCACAGCAGAAGCGUUCACGUCGCGGCGCCUGUCAGAUUCUGGUGAAUCUGCGAAGUCUGCUGU | 0.193
GGGGGCCACAGCAGAAGCGUUCACGUCGCGGCCCCUGUCCGAUUAUGGUGAAUCUGCGAAUUCUGCUGU | 0.534
GGGGGCCACAGCAGAACCGUUCACGUCGCGGCCCCUGUCAGAGUCUGGUGAAUCUGCGAAUUCUGCUGU | 0.0986
GGGGGCCACAGCAGAAGCGUUCACGUCGCAGACCCUGUCAGAUUCUGGUGAAUCUGCGAAUUCUGCUGU | 0.245
GGGGGCCACAGCAGAAGCGCUCACGUCGCGGCCCCUGUCAUAUUCUGGUGAAUCUGCGAAUUCUGCUGU | 0.137
GGGGACCACAGCAGAAGCGUUCACGUCGCGGCCCCUGUCAGAUUCUGGUGGAUCUGCGAAUUCUGCUGU | 0.849
GGGGGCCACAGCAGAAGCGUUCACGUCGCGGCCCCCGUCAGAUUCUGGUGAAUCUGCGAAUUCUACUGU | 0.67
GGGGGCCCCAGCAGAAGCGUUCACGUCGCGGCCCCUGCCAGAUUCUGGUGAAUCUGCGAAUUCUGCUGU | 0.9

**Query** Which self-cleavage value belongs to GGGGGCCACAGCAGAAGAGUUCACGUCGCGGCCCCUGUCAGAUUCUGGGGAAUCUGCGAAUUCUGCUGU ?
**Result** 0.259

**Query** Also check GGGGGCCACAGCAGACGCGUUCACGUCGCGGCCCCUGUCAGAUUCUGGUGAAUCUGCGAAUUCUGCUGU
**Result** 0.373
